Molecular target: T1, TTD of UHRF1 (residues 134–285) (human, UniProt Q96T88 134-285)
T1 construct: 15N- or 13C/15N-labelled for the NMR work; also called tandem Tudor domain; the isolated TTD
T1 sequence (looked up): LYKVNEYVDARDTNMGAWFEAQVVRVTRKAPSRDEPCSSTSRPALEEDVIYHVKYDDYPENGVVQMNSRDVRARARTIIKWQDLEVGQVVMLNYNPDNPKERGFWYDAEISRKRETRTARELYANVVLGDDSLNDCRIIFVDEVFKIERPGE
Assay: ITC; 0.05 mM protein in the cell, 0.5 mM protein or peptide in the syringe, iTC200, 18 °C, 10 mM HEPES pH 8.0, 100 mM NaCl
Conditions: both partners purified
pKd: −log10 of the molar value.
metric-name: pKd

>>> observed_result("MVDNPMRRKSGPSCKHCK (peptide, UniProt Q96T88 289-306, looked up, also called the Linker) [Linker peptide (289–306)]")
4.62
